# MEASUREMENT_PROTOCOL: Serum concentrations of ICI 182780 by radioimmunoassay (pharmacokinetics of monthly i.m. depot)
# Format: in vivo, human
# TEST_PARAMETERS: human, serum, intramuscular, 250 mg, patient 13 (progressive disease), 250 mg; read-out: Cmax on entry
ENDPOINT: Cmax (ng/mL)
Unit ng/mL implied. Number only.

Enquiry: Indicate the recorded Cmax value for this molecule: C[C@]12CC[C@@H]3c4ccc(O)cc4C[C@@H](CCCCCCCCC[S+]([O-])CCCC(F)(F)C(F)(F)F)[C@H]3[C@@H]1CC[C@@H]2O (stereo partly shown)
Return: 5.6

====

# MEASUREMENT_PROTOCOL: Serum concentrations of ICI 182780 by radioimmunoassay (pharmacokinetics of monthly i.m. depot)
# Type: in vivo, human
# TEST_PARAMETERS: human, serum, intramuscular, 250 mg, patient 16 (partial response), 250 mg; read-out: Cmax on entry
ENDPOINT: Cmax (ng/mL)
Provide only the numeric value, understood in ng/mL.

Enquiry: Report Cmax for C[C@]12CC[C@@H]3c4ccc(O)cc4C[C@@H](CCCCCCCCC[S+]([O-])CCCC(F)(F)C(F)(F)F)[C@H]3[C@@H]1CC[C@@H]2O (stereo partly shown) [ICI 182780]
Return: 4.4

====

# MEASUREMENT_PROTOCOL: Serum concentrations of ICI 182780 by radioimmunoassay (pharmacokinetics of monthly i.m. depot)
# Assay type: in vivo, human
# TEST_PARAMETERS: human, serum, intramuscular, 250 mg, patient 10 (partial response), 250 mg; read-out: Cmax on entry
ENDPOINT: Cmax (ng/mL)
The reply should contain only the number, in ng/mL.

Enquiry: # return recorded Cmax for entry C[C@]12CC[C@@H]3c4ccc(O)cc4C[C@@H](CCCCCCCCC[S+]([O-])CCCC(F)(F)C(F)(F)F)[C@H]3[C@@H]1CC[C@@H]2O (stereo partly shown)
Return: 14.8

====

# MEASUREMENT_PROTOCOL: Serum concentrations of ICI 182780 by radioimmunoassay (pharmacokinetics of monthly i.m. depot)
# Assay type: in vivo, human
# TEST_PARAMETERS: human, serum, intramuscular, 250 mg, patient 7 (progressive disease), 250 mg; read-out: Cmax on entry
ENDPOINT: Cmax (ng/mL)
Number in ng/mL, nothing else.

Enquiry: Find the measured Cmax of C[C@]12CC[C@@H]3c4ccc(O)cc4C[C@@H](CCCCCCCCC[S+]([O-])CCCC(F)(F)C(F)(F)F)[C@H]3[C@@H]1CC[C@@H]2O (stereo partly shown) and report it.
Return: 5.5

====

# MEASUREMENT_PROTOCOL: Serum concentrations of ICI 182780 by radioimmunoassay (pharmacokinetics of monthly i.m. depot)
# Type: in vivo, human
# TEST_PARAMETERS: female, human, serum, intramuscular, partial response patients; read-out: Median Cmax at month 6
ENDPOINT: Cmax (ng/mL)
Output spec: scalar in ng/mL, unitless text.

Enquiry: Tell me Cmax reported for C[C@]12CC[C@@H]3c4ccc(O)cc4C[C@@H](CCCCCCCCC[S+]([O-])CCCC(F)(F)C(F)(F)F)[C@H]3[C@@H]1CC[C@@H]2O (stereo partly shown)
Return: 11

====

# MEASUREMENT_PROTOCOL: Serum concentrations of ICI 182780 by radioimmunoassay (pharmacokinetics of monthly i.m. depot)
# Type: in vivo, human
# TEST_PARAMETERS: human, serum, intramuscular, 250 mg, patient 3 (partial response), 250 mg; read-out: Cmax at month 6
# Experimental: Bridsh Journal of Cancer (1996) 74, 300-308 ? […] The agent was administered as a monthly depot intramuscular injection. […] The study was approved by the ethics committees of each clinical centre. […] Tumour response to therapy was evaluated according to UICC criteria (Hayward et al., 1977). […] Body weight was recorded at each monthly review in the majority of patients. […] The study limit of quantification was 0.68 ng ml-'. […] Prolactin was measured by immunoradiometric assay using reagents supplied by Netria. […]
ENDPOINT: Cmax (ng/mL)
Answer with a number only, understood to be in ng/mL.

Enquiry: Supply recorded Cmax for C[C@]12CC[C@@H]3c4ccc(O)cc4C[C@@H](CCCCCCCCC[S+]([O-])CCCC(F)(F)C(F)(F)F)[C@H]3[C@@H]1CC[C@@H]2O (stereo partly shown) here.
Return: 9.9
